B1: H2-Kb / B7 (parent)
chain 1: GQQVQQSPTSLVLQEGENAELQCNFSTSLNSMQWFYQRPGGSLVSVFYNPSGTKQSGRLTSTTVIKERRSSLHISSSQITDSGTYLCAMERDMGYKLTFGTGTSLLVDP
chain 2: EAAVTQSPRNKVAVTGGKVTLSCNQTNNHNNMYWYRQDTGHGLRLIHYSYGAGSTEKGDIPDGYKASRPSQENFSLILELATPSQTSVYFCASGDPGDQDTQYFGPGTRLLVL
chain 3: not shown
chain 4: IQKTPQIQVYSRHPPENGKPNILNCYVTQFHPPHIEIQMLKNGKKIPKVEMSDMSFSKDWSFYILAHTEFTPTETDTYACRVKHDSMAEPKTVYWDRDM
chain 5: SIINFEKL

variants of: B1; assay: % of reporter cells activated (NFAT-GFP), raw; settings: with B7; scale: % of reporter cells activated; further: test concentration or dose not given here
Kindly supply the reported ratio to parent values for the records listed here.
Give only the figure.

# return recorded ratio to parent for entry chain 5 I3H
1.68

Give the value of ratio to parent reported for the following: chain 5 E6Q
0.754

Read the entry chain 5 S1Y and write its reported ratio to parent.
1.37

Answer with the recorded ratio to parent of chain 5 I3V only.
1.17

Name the recorded ratio to parent of the item chain 5 K7Q in your answer.
0.815

Retrieve ratio to parent measured for chain 5 E6S and print it.
1.38

Please report the measured ratio to parent for chain 5 L8K
0.785

Please supply the value of reported ratio to parent for the item chain 5 S1F
0.831

Please give measured ratio to parent of the following entry: chain 5 I3R
0.862

Determine its reported ratio to parent: chain 5 I2Q
1.25

Provide one value: measured ratio to parent of chain 5 E6F
1.52

// fetch ratio to parent given entry chain 5 F5L
1.46

Item chain 5 I2E : provide ratio to parent
1.35

Consider the variant chain 5 F5V . State its measured ratio to parent.
0.615

Please give measured ratio to parent of the following entry: chain 5 I2G
1.85

Note ratio to parent for the variant shown: chain 5 S1D
1.55

Entry chain 5 S1G needs its ratio to parent filled in; supply it.
1.57
